- METHOD_DESCRIPTION: Cytotoxicity against human EAhy926 cells assessed as cell survival at 50 ug/mL after 24 hrs by trypan blue exclusion assay
- Type: cell-based, EA.hy 926
- MEASUREMENT_CONTEXT: read-out: Survival
PARAMETER_MEASURED: viability at 24 h, 50 ug/mL (%)

SMI: CCOC(=O)c1ccc(NC(=O)c2cc3cc(Br)cc(Cl)c3oc2=O)cc1
PARAMETER_MEASURED: viability at 24 h, 50 ug/mL
REPORTED_RESULT: 58
--
SMI: CCOC(=O)c1ccc(NC(=O)c2cc3ccc(O)cc3oc2=O)cc1
PARAMETER_MEASURED: viability at 24 h, 50 ug/mL
REPORTED_RESULT: 64
--
SMI: CCOC(=O)c1ccc(NC(=O)c2cc3cc(O)ccc3oc2=O)cc1
PARAMETER_MEASURED: viability at 24 h, 50 ug/mL
REPORTED_RESULT: 77
--
SMI: COc1ccc2oc(=O)c(C(=O)Nc3ccc(C(=O)O)cc3)cc2c1
PARAMETER_MEASURED: viability at 24 h, 50 ug/mL
REPORTED_RESULT: 62
--
SMI: CCOC(=O)c1ccc(NC(=O)c2cc3cc(OC)ccc3oc2=O)cc1
PARAMETER_MEASURED: viability at 24 h, 50 ug/mL
REPORTED_RESULT: 36
--
SMI: O=C(O)c1ccc(NC(=O)c2cc3ccc(O)cc3oc2=O)cc1
PARAMETER_MEASURED: viability at 24 h, 50 ug/mL
REPORTED_RESULT: 82
--
SMI: CCOC(=O)c1ccc(NC(=O)c2cc3cc(C)ccc3oc2=O)cc1
PARAMETER_MEASURED: viability at 24 h, 50 ug/mL
REPORTED_RESULT: 14

Reference source: ChEMBL document CHEMBL1208768
